Here the recorded MIC is given for each entry.
molecular target: DNA gyrase (Escherichia coli) (UniProt P0AES6+P0AES4); test: In vitro antibacterial activity against gram-positive organism Streptococcus bovis A-5169; format: functional; settings: Streptococcus equinus
parameter: MIC (µg/mL)

{"columns": ["compound", "parameter", "units text", "relation", "quantitative readout"],
 "data": [
  ["Cc1c(N2CCC(c3ccccn3)C2)c(F)cn2c(=O)c(C(=O)O)cc(C3CC3)c12 (configuration not stated)", "MIC", "µg/mL", "=", 0.05],
  ["Cc1c(N2CCC(CN)C2)c(F)cn2c(=O)c(C(=O)O)cc(C3CC3)c12 (configuration not stated)", "MIC", "µg/mL", "=", 0.002],
  ["Cc1c(N2C[C@@H]3[C@@H](N)[C@@H]3C2)c(F)cn2c(=O)c(C(=O)O)cc(C3CC3)c12", "MIC", "µg/mL", "=", 0.1],
  ["Cc1c(N2CCC(N(C)C)C2)c(F)cn2c(=O)c(C(=O)O)cc(C3CC3)c12 (configuration not stated)", "MIC", "µg/mL", "=", 0.39],
  ["Cc1c(N2CCC(C)(N)C2)c(F)cn2c(=O)c(C(=O)O)cc(C3CC3)c12 (configuration not stated)", "MIC", "µg/mL", "=", 0.1],
  ["Cc1c(N2CCC(n3cccc3)C2)c(F)cn2c(=O)c(C(=O)O)cc(C3CC3)c12 (configuration not stated)", "MIC", "µg/mL", "=", 0.2],
  ["Cc1ccc(S(=O)(=O)O)cc1.NC1CCN(c2nc3c(cc2F)c(=O)c(C(=O)O)cn3-c2ccc(F)cc2F)C1 (configuration not stated) [TOSUFLOXACIN TOSYLATE]", "MIC", "µg/mL", "=", 0.78],
  ["COc1c(N2CCC(N)C2)c(F)cn2c(=O)c(C(=O)O)cc(C3CC3)c12 (configuration not stated)", "MIC", "µg/mL", "=", 0.39],
  ["Cc1c(N2CC[C@@H]([C@@H](C)N)C2)c(F)cn2c(=O)c(C(=O)O)cc(C3CC3)c12", "MIC", "µg/mL", "=", 0.01],
  ["Cc1c(N2C[C@H]3CCC[C@@H](N)[C@H]3C2)c(F)cn2c(=O)c(C(=O)O)cc(C3CC3)c12", "MIC", "µg/mL", "=", 0.002],
  ["O=C(O)c1cc(C2CC2)c2nc(N3CCNCC3)c(F)cn2c1=O", "MIC", "µg/mL", "=", 12.5],
  ["Cc1c(N2C[C@H]3CCN[C@H]3C2)c(F)cn2c(=O)c(C(=O)O)cc(C3CC3)c12 (single isomer, unassigned)", "MIC", "µg/mL", "=", 0.39],
  ["O=C(O)c1cc(C2CC2)c2cc(N3CCNCC3)c(F)cn2c1=O", "MIC", "µg/mL", "=", 3.1],
  ["CCc1cc(C(=O)O)c(=O)n2ccc(N3CCC(N)C3)cc12.Cl (configuration not stated)", "MIC", "µg/mL", "=", 25],
  ["Cc1c(N2CCC(N)C2)c(F)cn2c(=O)c(/C(O)=C/[N+](=O)[O-])cc(C3CC3)c12 (configuration not stated)", "MIC", "µg/mL", "=", 0.2],
  ["CN1CCN(c2nc3c(-c4ccc(F)cc4)cc(C(=O)O)c(=O)n3cc2F)CC1", "MIC", "µg/mL", "=", 25],
  ["Cc1c(N2CC[C@@H]([C@H](C)N)C2)c(F)cn2c(=O)c(C(=O)O)cc(C3CC3)c12", "MIC", "µg/mL", "<", 0.001],
  ["NC1CCN(c2nc3c(-c4ccc(F)cc4F)cc(C(=O)O)c(=O)n3cc2F)C1 (configuration not stated)", "MIC", "µg/mL", "=", 1.56],
  ["Cc1c(N2C[C@@H]3C[C@H]2CN3)c(F)cn2c(=O)c(C(=O)O)cc(C3CC3)c12", "MIC", "µg/mL", "=", 0.39],
  ["O=C(O)c1cc(-c2ccc(F)cc2F)c2nc(N3CCC(O)C3)c(F)cn2c1=O (configuration not stated)", "MIC", "µg/mL", "=", 6.2],
  ["Cc1c(N2CCC(n3ccnn3)C2)c(F)cn2c(=O)c(C(=O)O)cc(C3CC3)c12 (configuration not stated)", "MIC", "µg/mL", "=", 0.2],
  ["Cc1c(N2C[C@@H](N)C[C@H]2C)c(F)cn2c(=O)c(C(=O)O)cc(C3CC3)c12", "MIC", "µg/mL", "=", 0.1],
  ["NC1CCN(c2c(F)cn3c(=O)c(C(=O)O)cc(C4CC4)c3c2Cl)C1 (configuration not stated)", "MIC", "µg/mL", "=", 0.78],
  ["Cc1c(N2C[C@@H](N)[C@@H](C)C2)c(F)cn2c(=O)c(C(=O)O)cc(C3CC3)c12", "MIC", "µg/mL", "=", 0.02],
  ["Cc1c(NCCN)c(F)cn2c(=O)c(C(=O)O)cc(C3CC3)c12", "MIC", "µg/mL", "=", 12.5],
  ["NC1CCN(c2c(F)cn3c(=O)c(C(=O)O)cc(C4CC4)c3c2F)C1 (configuration not stated)", "MIC", "µg/mL", "=", 0.78],
  ["O=C(O)c1cc(C2CC2)c2nc(N3CCOCC3)c(F)cn2c1=O", "MIC", "µg/mL", ">", 100],
  ["Cc1c(N2CC[C@H]([C@@H](C)N)C2)c(F)cn2c(=O)c(C(=O)O)cc(C3CC3)c12", "MIC", "µg/mL", "=", 0.005],
  ["Cc1c(N2CC(N)C2)c(F)cn2c(=O)c(C(=O)O)cc(C3CC3)c12", "MIC", "µg/mL", "=", 0.78],
  ["Cc1c(F)c(N2CCC(N)C2)cc2c(C3CC3)cc(C(=O)O)c(=O)n12 (configuration not stated)", "MIC", "µg/mL", "=", 6.2],
  ["CN1CCN(c2nc3c(C4CC4)cc(C(=O)O)c(=O)n3cc2F)CC1", "MIC", "µg/mL", "=", 50],
  ["NC1CCN(c2nc3c(C4CC4)cc(C(=O)O)c(=O)n3cc2F)C1 (configuration not stated)", "MIC", "µg/mL", "=", 3.1],
  ["Cc1c(N2CC[C@@H](N)C2)c(F)cn2c(=O)c(C(=O)O)cc(C3CC3)c12", "MIC", "µg/mL", "=", 0.1],
  ["Cc1c(N2C[C@@H]3CCN[C@@H]3C2)c(F)cn2c(=O)c(C(=O)O)cc(C3CC3)c12 (stereo in doubt; 45o)", "MIC", "µg/mL", "=", 0.05],
  ["Cc1c(N2C[C@@H]3CCCN[C@@H]3C2)c(F)cn2c(=O)c(C(=O)O)cc(C3CC3)c12 (stereo in doubt; (S,S)45n)", "MIC", "µg/mL", "=", 0.05],
  ["C[C@H]1C[C@H](N)CN1c1nc2c(-c3ccc(F)cc3F)cc(C(=O)O)c(=O)n2cc1F", "MIC", "µg/mL", "=", 1.56],
  ["CO[C@@H]1CN(c2c(F)cn3c(=O)c(C(=O)O)cc(C4CC4)c3c2C)C[C@H]1N", "MIC", "µg/mL", "=", 0.39]
]}
